- Assayed target: [Ser^113]βAR (Mesocricetus auratus, UniProt P04274, D113S)
- Construct: pSVHAC contains the full length hamster ß₂AR cDNA cloned into the EcoRI site of pSVL; expressed in transfected cells; host or cells: mouse L cells (clonal lines, membranes)
- Sequence (P04274 whole entry D113S): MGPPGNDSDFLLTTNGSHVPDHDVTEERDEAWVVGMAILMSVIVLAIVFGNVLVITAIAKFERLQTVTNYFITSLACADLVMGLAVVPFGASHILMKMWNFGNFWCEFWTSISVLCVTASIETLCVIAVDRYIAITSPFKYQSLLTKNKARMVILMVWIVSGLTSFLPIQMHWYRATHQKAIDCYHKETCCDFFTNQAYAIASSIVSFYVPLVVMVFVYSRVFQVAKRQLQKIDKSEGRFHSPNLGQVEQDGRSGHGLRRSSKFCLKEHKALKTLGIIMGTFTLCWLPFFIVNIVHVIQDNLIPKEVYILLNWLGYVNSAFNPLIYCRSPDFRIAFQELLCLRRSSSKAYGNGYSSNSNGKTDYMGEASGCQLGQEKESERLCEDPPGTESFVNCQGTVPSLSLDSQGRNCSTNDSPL
- Procedure details: Adenylyl cyclase stimulation in membranes of mouse L cells expressing the mutant receptor
- Format: biochemical, hamster
- Assay setup: result in words, acids compared with the corresponding esters

{"columns": ["Compound", "activation of [Ser¹¹³]ßAR"],
 "data": [
  ["CCOC(=O)C(=O)Cc1ccc(O)c(O)c1 [Compound 9]", "activated"],
  ["O=C(O)/C=C/c1ccc(O)c(O)c1 [Compound 8]", "less effective"],
  ["O=C(O)C(=O)Cc1ccc(O)c(O)c1 [Compound 10]", "less effective"],
  ["COC(=O)/C=C/c1ccc(O)c(O)c1 [Compound 7]", "activated"],
  ["CCOC(=O)CCc1ccc(O)c(O)c1 [Compound 5]", "activated"],
  ["CCOC(=O)CC(O)c1ccc(O)c(O)c1 (stereo not drawn) [Compound 13]", "activated"],
  ["O=C(O)CCc1ccc(O)c(O)c1 [Compound 6]", "less effective"],
  ["CCOC(=O)Cc1ccc(O)c(O)c1 [Compound 11]", "activated"]
]}

---

- Assayed target: Wild-type βAR (Mesocricetus auratus)
- Construct: pSVHAC contains the full length hamster ß₂AR cDNA cloned into the EcoRI site of pSVL
- Sequence (P04274 whole entry): as the sequence (P04274 whole entry D113S) above, with S113D counted along it
- Procedure details: Adenylyl cyclase stimulation in membranes of mouse L cells expressing the wild-type receptor
Outcome measure: EC50 (nM)

{"columns": ["Molecule", "Observed measurement"],
 "data": [
  ["CNC[C@H](O)c1ccc(O)c(O)c1 [Compound 2, epinephrine]", 300]
]}
